The reader will find reported log10 IC50 values listed item by item below.
# System: HUVEC
# EXPERIMENT: Inhibition of VEGF-induced proliferation in HUVEC cells assessed as BrdU incorporation by ELISA
# Format: functional, cell-based
# ASSAY CONTEXT: Homo sapiens
RECORDED ENDPOINT: log10 IC50 (log10 of the value in nM)

INSERT INTO results (structure_notation, observed) VALUES
  ('Cc1cccc(C(=O)Nc2cnc3ccccc3c2)c1Br', 1.06),
  ('Cc1cccc(C(=O)Nc2cccc3cccnc23)c1O', 1.42),
  ('Cc1cc(Br)cc(C(=O)Nc2cnc3ccccc3c2)c1O', 1.28),
  ('O=C(Nc1cccc2cccnc12)c1ccc([N+](=O)[O-])cc1', 1.67),
  ('O=C(Nc1cccc2cccnc12)c1ccccc1Cl', 2.09),
  ('Cc1cc(Br)cc(C(=O)Nc2cnc3ccccc3c2)c1', 1.95);
